target_or_system: ABHD12 (Homo sapiens)
Sequence (Q8N2K0 whole entry): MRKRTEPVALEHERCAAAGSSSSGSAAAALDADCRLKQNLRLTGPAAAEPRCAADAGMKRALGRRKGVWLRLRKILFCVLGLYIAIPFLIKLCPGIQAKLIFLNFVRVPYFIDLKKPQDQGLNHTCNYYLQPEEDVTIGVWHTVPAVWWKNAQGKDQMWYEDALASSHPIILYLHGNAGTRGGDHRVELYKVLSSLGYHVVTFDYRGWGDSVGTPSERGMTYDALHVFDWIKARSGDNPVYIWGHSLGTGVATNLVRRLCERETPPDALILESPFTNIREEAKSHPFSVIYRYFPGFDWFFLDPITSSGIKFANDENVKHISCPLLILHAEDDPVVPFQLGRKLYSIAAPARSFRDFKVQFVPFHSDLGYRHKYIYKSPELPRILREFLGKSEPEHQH
measured_property: IC50 (µM)
State the answer as a number, implicitly in µM.

## Task Give IC50; test system ABHD12 (Homo sapiens); compound FC(F)(F)Oc1ccc(Oc2ccnc(N3CCC(NC(=S)Nc4cccnc4)CC3)c2Cl)c(Cl)c1 [DO264]
## Result 0.026

* * *

target_or_system: ABHD12 (Mus musculus, UniProt Q99LR1)
Sequence (Q99LR1 1-398): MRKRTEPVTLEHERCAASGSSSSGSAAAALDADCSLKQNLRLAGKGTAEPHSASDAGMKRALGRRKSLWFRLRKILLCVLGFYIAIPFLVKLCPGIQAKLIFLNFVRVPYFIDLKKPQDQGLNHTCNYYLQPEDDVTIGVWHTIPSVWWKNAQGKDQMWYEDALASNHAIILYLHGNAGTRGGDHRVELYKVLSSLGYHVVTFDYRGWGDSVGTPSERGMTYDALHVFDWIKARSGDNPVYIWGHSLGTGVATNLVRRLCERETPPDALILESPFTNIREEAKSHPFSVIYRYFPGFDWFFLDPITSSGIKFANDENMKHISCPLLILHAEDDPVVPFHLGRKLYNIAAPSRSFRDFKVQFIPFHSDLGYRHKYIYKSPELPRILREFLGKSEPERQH
protocol: Competitive gel-based ABPP with JJH350 probe in mouse brain membrane proteome
Type: biochemical
measured_property: pIC50
Lab note — pIC50 values are minus log10 of concentrations in M.

>>> reported_measurement("O=C(Nc1cccnc1)NC1CCN(c2nccc(Oc3ccc(OC(F)(F)F)cc3Cl)c2Cl)CC1")
6.77

Shifting focus to the compound that follows.
## Task Identify the reported pIC50 for the following entry. `CN(C(=S)Nc1cccnc1)C1CCN(c2nccc(Oc3ccc(OC(F)(F)F)cc3Cl)c2Cl)CC1`
## Result 5.96

* * *

target_or_system: ABHD12 (Mus musculus, UniProt Q99LR1)
protocol: Lyso-PS hydrolysis assay with membrane lysates of ABHD12-transfected cells
Assay type: biochemical
measured_property: IC50 (nM)
State the answer as a number, implicitly in nM.

## Task Identify the reported IC50 for the following entry. `FC(F)(F)c1cnc(N2CCC(NC(=S)Nc3cccnc3)CC2)c(Cl)c1`
## Result 1300
